system: RPMI-8226; assay: NCI tumour cell line growth inhibition, 48 h
Active and inactive are the calls of the source. No stated cut-off is given here; in the data, active = GI50 up to about 1.1 µM and inactive = higher.
# GI50 per entry

Illustrative cases are given below, each with its answer.
Cc1ccc(NC(=O)c2cc3ccccc3c(/N=N\c3ccccc3O)c2O)c(C)c1; 1.78 µM (inactive)
CCC(=O)Nc1ccc(NCC(=O)Nc2ccc(Cl)cc2)cc1; 21.2 µM (inactive)
CC(NS(C)(=O)=O)c1ccccc1 (stereo not drawn); > 100 µM (inactive)
CCOC(=O)C1=C(C)N(C2OC(COC(=O)c3ccccc3)C(OC(=O)c3ccccc3)C2OC(=O)c2ccccc2)C(=S)NC1c1ccccc1 (stereo not drawn); 16.1 µM (inactive)

Now for another entry.
Let me check: CCOC(OC1=C(C#N)CCC1)C(C)[Se]c1ccccc1 (stereo not drawn) , system RPMI-8226, measured GI50 is 23.3 µM (inactive)
